B1: 2K2A (parent)
chain: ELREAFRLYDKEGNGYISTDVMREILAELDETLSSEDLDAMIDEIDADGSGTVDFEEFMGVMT

variants of: B1; test: folding stability dG (cDNA display proteolysis); higher = more stable; conditions: PBS, room temperature
PARAMETER MEASURED: folding stability dG (kcal/mol)

ELREAFRLYDKEGNGYISTDVMREILAELDETLSSEDLDAMIDEIDADGSGSVDFEEFMGVMT [T52S] ... 1.45
ELREAFRLYDKEGNGYISTDVMYEILAELDETLSSEDLDAMIDEIDADGSGTVDFEEFMGVMT [R23Y] ... 0.595
ELREAFRLYDKEGNGYISTDVMREILAELDETLSSEDLDAMIDEIDADGLGTVDFEEFMGVMT [S50L] ... 1.22
ELREAFRLYDKEGNGYISTDVMREILAELDETLSSEDLDAKIDEIDADGSGTVDFEEFMGVMT [M41K] ... 1.49
ELREAFRLYDKEGNGYISTDVMREILAELDETLSSEDLDAMIDEIDASGSGTVDFEEFMGVMT [D48S] ... 1.57
ELREAFRLYDKEGNGYISTDVMREILAELDETLSSEDLDAMIDEIDADGSGTVDFEEFPGVMT [M59P] ... -0.961
ELREAFRLYDKEGNGYISTDAMREILAELDETLSSEDLDAMIDEIDADGSGTVDFEEFMGVMT [V21A] ... 2.17
ELREAFRLYDKEGNGYISTDVMREILAELDETLSSEDLDAMIREIDADGSGTVDFEEFMGVMT [D43R] ... 2.35
ELREAFRLYDKEGNGYISTDVMREILAELDETLSSEDLDAMIDEIDADGSGTVDFEEFMGVET [M62E] ... -0.063
ELRYAFRLYDKEGNGYISTDVMREILAELDETLSSEDLDAMIDEIDADGSGTVDFEEFMGVMT [E4Y] ... 1.43
ELREAFRLYDKEGNGYISTDVMREILAELDETLSSEDLDAMPDEIDADGSGTVDFEEFMGVMT [I42P] ... -0.739
ELREAFRLYDKEGNGYISTDVMREILAELDETLSSEDLDAMIDEIDADGSGTVDFEEFMIVMT [G60I] ... 2.39
ELREAFRLYDKEGNGYISTDVMREILAELDETLSSEDLDAMIDEIDADGSGTYDFEEFMGVMT [V53Y] ... 0.679
ELREAFRLYDKEGNGYISTDVMREILAELDMTLSSEDLDAMIDEIDADGSGTVDFEEFMGVMT [E31M] ... 2.02
ELREAFRLYDKEGNGYISTDVMRYILAELDETLSSEDLDAMIDEIDADGSGTVDFEEFMGVMT [E24Y] ... 2.2
ELREAFRLYDKEGNGYISTDVMRERLAELDETLSSEDLDAMIDEIDADGSGTVDFEEFMGVMT [I25R] ... 0
ELREAFRLYDKEGNGYISTDVMREILAELDEGLSSEDLDAMIDEIDADGSGTVDFEEFMGVMT [T32G] ... 1.67
ELREAFRLYDKEGNGYISTDVMRKILAELDETLSSEDLDAMIDEIDADGSGTVDFEEFMGVMT [E24K] ... 2.6
ELREAFRLYCKEGNGYISTDVMREILAELDETLSSEDLDAMIDEIDADGSGTVDFEEFMGVMT [D10C] ... 2.18
ELREAFRLYDKEGNGYISTDVMREILAELDETLSSEDLDAMIDEIDADGSKTVDFEEFMGVMT [G51K] ... 1.27
DLREAFRLYDKEGNGYISTDVMREILAELDETLSSEDLDAMIDEIDADGSGTVDFEEFMGVMT [E1D] ... 2.41
ELREAFRLYDKEGNGYISTDVMREILAELDETLSSEDLDAMIHEIDADGSGTVDFEEFMGVMT [D43H] ... 2.16
